Assay: Solubility at pH 6.8
Type: physicochemical
Conditions: pH 6.8, aqueous buffer, thermodynamic from solid; read-out: solubility
From the text: The physicochemical properties of relevance for the absorption of the compound, such as the solubility and the membrane permeability, especially at a pH close to neutral pH can be measured using the procedure as described by L. ZHOU et al. in JOURNAL OF PHARMACEUTICAL SCIENCES, VOL. 96, NO. 11, p. 3052-3071 (2007) for the solubility at pH 6.8 and the procedure as described by F. Wohnsland and B. Faller in Journal of Medicinal Chemistry Vol 44, p. […]
MEASURED ENDPOINT: solubility (µg/mL)

{"MOLECULE": "Cc1nn(C(C)C)cc1-n1c(=O)n(C)c2cnc3ccc(-c4ccc(N(C)C)nc4)cc3c21 [Example 4.1]", "U": "µg/mL", "solubility": 336}
{"MOLECULE": "Cc1nn(C)cc1-n1c(=O)n(C)c2cnc3ccc(-c4cncc(OC(F)F)c4)cc3c21 [Example 183]", "U": "µg/mL", "solubility": 84}

[a] CCOc1cc(-c2ccc3ncc4c(c3c2)n(-c2cn(C)nc2C)c(=O)n4C)cnc1CC [Example 187]
[b] COc1ncc(-c2ccc3ncc4c(c3c2)n(-c2cn(C)nc2C)c(=O)n4C)cc1N [Example 127]
[c] CCN(CC)C(=O)Cn1cc(-n2c(=O)n(C)c3cnc4ccc(-c5cnc(N6CCCC6)nc5)cc4c32)c(C)n1 [Example 247.1]
Order the records by solubility, with each subsequent value no larger than the one before. Submit the labels in the order that the ranking request calls for.
b, c, a
